Recorded values, source ChEMBL document CHEMBL1145094.

I'd appreciate it if you could supply EC50 values for the items below.
# system.name: 5-hydroxytryptamine receptor 2A (Rattus norvegicus)
# Sequence (P14842 whole entry): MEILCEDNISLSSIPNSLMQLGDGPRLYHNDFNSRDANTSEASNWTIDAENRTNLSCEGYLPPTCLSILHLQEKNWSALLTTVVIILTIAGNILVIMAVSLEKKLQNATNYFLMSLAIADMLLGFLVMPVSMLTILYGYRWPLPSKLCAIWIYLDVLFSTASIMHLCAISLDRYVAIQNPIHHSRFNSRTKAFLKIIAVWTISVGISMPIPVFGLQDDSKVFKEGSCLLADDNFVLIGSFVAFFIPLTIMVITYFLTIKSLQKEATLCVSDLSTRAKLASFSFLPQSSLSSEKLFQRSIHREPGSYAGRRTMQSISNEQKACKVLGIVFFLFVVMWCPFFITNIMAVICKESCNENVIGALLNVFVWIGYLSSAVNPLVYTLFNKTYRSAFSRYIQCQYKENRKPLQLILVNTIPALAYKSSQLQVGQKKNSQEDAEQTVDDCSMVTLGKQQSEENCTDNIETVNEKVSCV
# experiment.notes: In vitro relative agonist activity against 5-hydroxytryptamine 2A using PI assay in rat vascular smooth muscle cells
Give bare numbers, in nM.

Below, 2 compounds whose answers are already recorded.
COc1cc(C[C@@H](C)N)c(OC)cc1I    27.7
C[C@H](N)Cc1c[nH]c2ccc3c(c12)CCCO3    80.1

--- query ---
Consider NCCc1c[nH]c2ccc3c(c12)CCCO3 . Its measured EC50 is 181

###

# system.name: 5-hydroxytryptamine receptor 2B (Homo sapiens)
# Sequence (P41595 whole entry): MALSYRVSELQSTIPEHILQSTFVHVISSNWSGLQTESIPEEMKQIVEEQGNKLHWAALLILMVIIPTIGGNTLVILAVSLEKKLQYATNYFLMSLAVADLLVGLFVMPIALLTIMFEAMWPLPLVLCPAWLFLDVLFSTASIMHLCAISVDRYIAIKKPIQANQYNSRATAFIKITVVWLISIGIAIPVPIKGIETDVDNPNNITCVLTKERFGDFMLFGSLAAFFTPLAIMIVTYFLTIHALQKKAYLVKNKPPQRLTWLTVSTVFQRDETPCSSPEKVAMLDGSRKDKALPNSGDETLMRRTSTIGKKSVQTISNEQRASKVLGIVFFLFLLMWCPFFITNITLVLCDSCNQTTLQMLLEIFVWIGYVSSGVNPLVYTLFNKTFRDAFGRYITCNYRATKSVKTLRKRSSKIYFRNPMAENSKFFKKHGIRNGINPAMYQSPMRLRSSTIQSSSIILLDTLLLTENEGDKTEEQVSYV
I'd appreciate it if you could supply Ki values for the items below.
One number for each entry, in nM.

CC(N)Cc1cn(C)c2ccc3c(c12)CCCO3 (stereo not given)    11
CC(N)Cc1c[nH]c2ccc3c(c12)CCCO3 (stereo not given)    13
NCCc1c[nH]c2ccc3c(c12)CCCO3    14

Answer for every listed entry: what is its Ki? The entries follow.
1. COc1ccc2[nH]cc(CC(C)N)c2c1 (stereo not given)
2. CC(N)Cc1c[nH]c2ccc(O)cc12 (stereo not given)

Completion:
1. 7.8
2. 13
